# ASSAYED_SYSTEM: G3BP1 NTF2 domain (human, UniProt Q13283 11-133)
# Sequence (Q13283 11-133): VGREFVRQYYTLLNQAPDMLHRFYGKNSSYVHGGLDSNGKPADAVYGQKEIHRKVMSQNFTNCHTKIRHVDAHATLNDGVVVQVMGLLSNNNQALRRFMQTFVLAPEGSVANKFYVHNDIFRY
# EXPERIMENTAL_SETUP: both partners purified
QUANTITY: pIC50
A value of pIC50 is the negative decimal logarithm of a concentration given in moles per litre.

Known results for binders:
QGLPLEFGASAETVRY [NSP3 peptide 958-972 (Sars-CoV)] :: 3.49
PSKLPTFGAPEQLVDY [TRIM25 peptide 400-414] :: 3.92
APRITFGGPTDSTDNY [N peptide 13-27 (Sars-CoV)] :: 5.00
APRAVTFGDNNDNNTY [N peptide 6-20 (Mers1)] :: 3.89

Now examine the next entry.
What measured pIC50 goes with NLQFGALQFGSEPVY [UBAP2L peptide 515-528] ?
3.98
